B1: LINE1-full (parent)
chain: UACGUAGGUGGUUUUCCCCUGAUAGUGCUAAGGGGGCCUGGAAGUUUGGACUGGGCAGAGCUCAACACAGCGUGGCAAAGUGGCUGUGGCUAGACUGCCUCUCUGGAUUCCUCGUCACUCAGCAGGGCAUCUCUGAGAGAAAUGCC

Variants of: B1
EXPERIMENT SUMMARY: self-cleavage, relative activity (ratio to wild type); higher = more cleavage; in vitro, sequencing; the parent is a self-cleaving ribozyme
READOUT NAME: self-cleavage
Enter a number only.

INPUT: Provide measured self-cleavage value, entry: C131U U143G
OUTPUT: 0.59

INPUT: Provide measured self-cleavage value, entry: C90A
OUTPUT: 0.04

INPUT: Provide measured self-cleavage value, entry: U26A A77U
OUTPUT: 0.78

INPUT: Provide measured self-cleavage value, entry: G126C A129G
OUTPUT: 2.02

INPUT: Provide measured self-cleavage value, entry: G53A C103A
OUTPUT: 1.43

INPUT: Provide measured self-cleavage value, entry: G114A A124G
OUTPUT: 1.5

INPUT: Provide measured self-cleavage value, entry: A67G A79G
OUTPUT: 0.5

INPUT: Provide measured self-cleavage value, entry: A57C U112C
OUTPUT: 0.08

INPUT: Provide measured self-cleavage value, entry: U9A G33U
OUTPUT: 1.6

INPUT: Provide measured self-cleavage value, entry: G25C U91C
OUTPUT: 0.97

INPUT: Provide measured self-cleavage value, entry: A79G G80A
OUTPUT: 1.89

INPUT: Provide measured self-cleavage value, entry: G33C A79G
OUTPUT: 1.78

INPUT: Provide measured self-cleavage value, entry: A67G A140G
OUTPUT: 0.42

INPUT: Provide measured self-cleavage value, entry: U13C U119A
OUTPUT: 1.15

INPUT: Provide measured self-cleavage value, entry: G55U U96C
OUTPUT: 0.08

INPUT: Provide measured self-cleavage value, entry: U81C U104C
OUTPUT: 1.48

INPUT: Provide measured self-cleavage value, entry: U12G A57U
OUTPUT: 0.17

INPUT: Provide measured self-cleavage value, entry: U12G U109A
OUTPUT: 1.47

INPUT: Provide measured self-cleavage value, entry: A59G U109C
OUTPUT: 0.17

INPUT: Provide measured self-cleavage value, entry: A42G G89C
OUTPUT: 0

INPUT: Provide measured self-cleavage value, entry: U102A U115C
OUTPUT: 1.88

INPUT: Provide measured self-cleavage value, entry: A22G C71U
OUTPUT: 0.55
